target: Vacuolar aminopeptidase 1 (Saccharomyces cerevisiae (strain ATCC 204508 / S288c)) (UniProt P14904); assay: yeast TOR reporter LAP4 modulators, analogs – cell-based, KU SAR set, flow cytometry, SAR follow-up (AID 488795); conditions: S. cerevisiae Lap4-GFP reporter, flow cytometry MCF
Sequence (P14904 whole entry, looked up): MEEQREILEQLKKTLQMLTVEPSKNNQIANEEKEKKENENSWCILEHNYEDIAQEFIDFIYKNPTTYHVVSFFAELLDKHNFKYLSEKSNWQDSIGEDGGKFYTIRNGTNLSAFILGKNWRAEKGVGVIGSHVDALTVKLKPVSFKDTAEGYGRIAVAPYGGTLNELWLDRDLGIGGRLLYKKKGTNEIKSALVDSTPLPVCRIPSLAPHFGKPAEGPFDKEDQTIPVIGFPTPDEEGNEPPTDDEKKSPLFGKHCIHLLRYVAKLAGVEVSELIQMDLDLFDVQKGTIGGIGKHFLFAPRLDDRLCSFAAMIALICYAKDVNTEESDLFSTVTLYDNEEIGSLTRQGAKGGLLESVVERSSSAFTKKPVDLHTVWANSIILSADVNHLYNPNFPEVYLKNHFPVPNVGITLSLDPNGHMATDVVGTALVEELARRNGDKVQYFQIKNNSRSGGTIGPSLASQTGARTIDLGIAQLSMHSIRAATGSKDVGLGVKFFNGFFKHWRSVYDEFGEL
Active and inactive are the calls of the source. How the calls were made is not given here.
Your reply should match one of these outcome classes. active, inactive

As a guide, the following entries are already answered.
O=S(=O)(CCN(CCS(=O)(=O)C(F)(F)F)CC1CCCO1)C(F)(F)F (stereo not drawn) = active
COc1ccc([N+](=O)[O-])c(S(=O)(=O)c2ccccc2)n1 = active

q: Name the outcome recorded for O=[N+]([O-])c1cc(S(=O)(=O)C(F)(F)F)ccc1Sc1nc2ccccc2s1 in the assay.
a: active

q: Name the outcome recorded for CNc1nc(N)c([N+](=O)[O-])c(Nc2cccc(F)c2)n1 in the assay.
a: active

q: Name the outcome recorded for CCSc1nnc(NC(=O)c2ccccn2)s1 in the assay.
a: inactive

q: Name the outcome recorded for C/C(=N\NC(=O)c1ccc(C(C)(C)C)cc1)c1ccccn1 in the assay.
a: inactive

q: Name the outcome recorded for Oc1c(I)cc(I)c2cccnc12 in the assay.
a: inactive

q: Name the outcome recorded for CCOC(=O)CCS(=O)(=O)c1nc(-c2ccccc2)cc(C(F)(F)F)n1 in the assay.
a: active

q: Name the outcome recorded for C/C(=N\NC(=O)c1cccc(Br)c1)c1ccccn1 in the assay.
a: inactive

q: Name the outcome recorded for CN1CCN(C(=O)c2cc(COc3c(F)cccc3F)on2)CC1c1ccccc1 (stereo not drawn) in the assay.
a: inactive

q: Name the outcome recorded for Cc1ccc2nc(Cl)c3nnnn3c2c1 in the assay.
a: active

q: Name the outcome recorded for O=C(CCc1ccccc1)NNC(=S)NC(=O)c1ccccc1 in the assay.
a: active

q: Name the outcome recorded for CCCCC(=O)NNC(=S)NC(=O)c1ccc(C)cc1 in the assay.
a: active

q: Name the outcome recorded for O=C(OCn1ncc(Br)c(Br)c1=O)c1ccc(F)cc1 in the assay.
a: active

q: Name the outcome recorded for O=[N+]([O-])c1ccc(O)c2ncccc12 in the assay.
a: active

q: Name the outcome recorded for COc1ccc([N+](=O)[O-])c(S(=O)(=O)c2ccc(Cl)cc2)n1 in the assay.
a: active

q: Name the outcome recorded for O=[N+]([O-])c1ccc(S(=O)(=O)c2cccc(C(F)(F)F)c2)nc1 in the assay.
a: active

q: Name the outcome recorded for Cc1ccc(S(=O)(=O)c2ccc([N+](=O)[O-])cn2)cc1 in the assay.
a: active

q: Name the outcome recorded for CCCOc1ccc(C(=O)NNC(=S)NC(=O)CC)cc1 in the assay.
a: active

q: Name the outcome recorded for O=C(OCn1ncc(Br)c(Br)c1=O)c1c(F)cccc1F in the assay.
a: active

q: Name the outcome recorded for Nc1cc(Nc2cccc(F)c2)nc(NCc2ccccc2)n1 in the assay.
a: inactive

q: Name the outcome recorded for O=c1cc(CSc2ccc(Cl)cc2)nc(-c2ccccn2)[nH]1 in the assay.
a: active

q: Name the outcome recorded for Clc1ccc(N=c2ssnc2Cl)cc1 in the assay.
a: active
